Recorded Activity, one value per entry.
Biological target: Adenosine receptor A1 (Homo sapiens) (UniProt P30542)
Sequence (P30542 whole entry): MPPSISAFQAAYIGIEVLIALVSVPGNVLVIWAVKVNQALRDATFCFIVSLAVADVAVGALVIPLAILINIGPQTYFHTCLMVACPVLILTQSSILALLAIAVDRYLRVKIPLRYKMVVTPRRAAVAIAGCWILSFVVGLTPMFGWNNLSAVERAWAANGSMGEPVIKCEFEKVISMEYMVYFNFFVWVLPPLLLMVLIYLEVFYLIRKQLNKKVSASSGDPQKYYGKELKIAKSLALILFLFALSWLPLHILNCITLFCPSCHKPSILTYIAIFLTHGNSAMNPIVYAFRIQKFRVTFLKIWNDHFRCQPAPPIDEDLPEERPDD
Experiment: Allosteric modulation of human adenosine A1 receptor transfected in CHO FlpIn cells assessed as orthosteric agonist R-PIA-mediated ERK1/2 phosphorylation at 3 uM pretreated 30 mins before R-PIA challenge measured after 1.5 hrs by fluorescence assay
Format: functional, cell-based
Numeric only. Scale: %

[
  {
    "Smiles Notation": "Nc1scc(-c2ccc(F)cc2)c1C(=O)c1ccc(Cl)cc1",
    "Reported Measurement": 62
  },
  {
    "Smiles Notation": "Nc1scc(-c2ccccc2F)c1C(=O)c1ccc(Cl)cc1",
    "Reported Measurement": 70
  },
  {
    "Smiles Notation": "Nc1scc(-c2ccc(I)cc2)c1C(=O)c1ccccc1",
    "Reported Measurement": 51
  }
]

Could you now consider this next compound?
What does the data say about its Activity? Entry: COc1cccc(-c2csc(N)c2C(=O)c2ccccc2)c1
41
